Provenance of the data: patent US20210277110A1

Target: T1, Extracellular domain of cyno PD1 (cPD1-ECD) (Macaca fascicularis (cynomolgus))
T1 construct: Expressed with a hexahistidine tag or as Fc fusion; also called cynoPD1-ECD; cynoPD-1-ECD
T1 chain: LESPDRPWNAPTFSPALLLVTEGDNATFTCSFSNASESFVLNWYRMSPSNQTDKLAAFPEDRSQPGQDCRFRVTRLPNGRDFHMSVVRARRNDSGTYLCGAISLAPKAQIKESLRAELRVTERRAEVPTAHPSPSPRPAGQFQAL
Assay: SPR ProteOn, cynoPD1-ECD; RANGE low replicate
Response field label takes TRUE when Kd is strictly below 30 nM and FALSE in all other cases.

Observe how each entry below is paired with its result.
[[record]]
binder = "PD1B184 (antibody, human IgG2, kappa, V domains shown, IgG2sigma/kappa; VH 43, VL 50; also called PD1H3/PD1L128) VH: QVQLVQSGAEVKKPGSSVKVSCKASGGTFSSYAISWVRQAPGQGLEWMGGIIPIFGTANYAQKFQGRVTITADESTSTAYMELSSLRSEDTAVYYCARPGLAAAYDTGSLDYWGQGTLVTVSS VL: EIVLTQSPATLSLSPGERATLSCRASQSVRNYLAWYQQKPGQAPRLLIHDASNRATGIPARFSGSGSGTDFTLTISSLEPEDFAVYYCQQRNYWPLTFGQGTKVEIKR"
labelvalue = "TRUE"

[[record]]
binder = "PD1B185 (antibody, human IgG2, kappa, V domains shown, IgG2sigma/kappa; VH 43, VL 55; also called PD1H3/PD1L132) VH: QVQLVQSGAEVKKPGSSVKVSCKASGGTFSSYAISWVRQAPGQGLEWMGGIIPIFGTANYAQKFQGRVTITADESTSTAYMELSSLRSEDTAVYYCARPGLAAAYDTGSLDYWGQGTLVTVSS VL: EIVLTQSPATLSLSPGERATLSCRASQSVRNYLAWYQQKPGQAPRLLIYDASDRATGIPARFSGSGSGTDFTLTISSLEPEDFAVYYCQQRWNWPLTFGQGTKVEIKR"
labelvalue = "TRUE"

[[record]]
binder = "PD1B187 (antibody, V domains shown, Tested as IgG2sigma; also called PD1H3/PD1L148) VH: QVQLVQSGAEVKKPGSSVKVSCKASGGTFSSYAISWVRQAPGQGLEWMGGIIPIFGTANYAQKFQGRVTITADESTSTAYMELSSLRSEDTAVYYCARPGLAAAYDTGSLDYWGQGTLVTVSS VL: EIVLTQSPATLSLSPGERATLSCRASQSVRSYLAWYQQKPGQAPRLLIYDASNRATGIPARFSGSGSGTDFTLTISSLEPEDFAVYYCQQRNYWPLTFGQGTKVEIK"
labelvalue = "TRUE"

[[record]]
binder = "PD1B70 (antibody, V domains shown, Tested as IgG2sigma/kappa; also called PD1H107/PH9L3) VH: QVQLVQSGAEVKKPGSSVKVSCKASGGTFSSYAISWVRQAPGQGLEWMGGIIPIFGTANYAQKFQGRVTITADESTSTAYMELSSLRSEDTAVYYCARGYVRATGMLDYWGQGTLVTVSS VL: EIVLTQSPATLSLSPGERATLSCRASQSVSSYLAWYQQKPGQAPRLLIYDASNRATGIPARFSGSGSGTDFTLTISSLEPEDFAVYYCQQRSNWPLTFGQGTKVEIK"
labelvalue = "FALSE"


Request: Dear reviewer, please state whether PD1B192 (antibody, human IgG2, kappa, V domains shown, IgG2sigma/kappa; VH 43, VL 57; also called PD1H3/PD1L133) VH: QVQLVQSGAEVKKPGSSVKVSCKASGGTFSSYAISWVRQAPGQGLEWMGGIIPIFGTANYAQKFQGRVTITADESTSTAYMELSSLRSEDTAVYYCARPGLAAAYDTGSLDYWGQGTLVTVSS VL: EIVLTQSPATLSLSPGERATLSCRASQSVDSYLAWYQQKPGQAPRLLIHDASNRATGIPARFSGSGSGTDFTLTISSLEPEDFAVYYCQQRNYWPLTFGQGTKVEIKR has Kd strictly beneath 30 nM.
Response: TRUE
